Target: rat 5-HT7 receptor (Rattus norvegicus (Rat), UniProt P32305)
Sequence (P32305 1-435): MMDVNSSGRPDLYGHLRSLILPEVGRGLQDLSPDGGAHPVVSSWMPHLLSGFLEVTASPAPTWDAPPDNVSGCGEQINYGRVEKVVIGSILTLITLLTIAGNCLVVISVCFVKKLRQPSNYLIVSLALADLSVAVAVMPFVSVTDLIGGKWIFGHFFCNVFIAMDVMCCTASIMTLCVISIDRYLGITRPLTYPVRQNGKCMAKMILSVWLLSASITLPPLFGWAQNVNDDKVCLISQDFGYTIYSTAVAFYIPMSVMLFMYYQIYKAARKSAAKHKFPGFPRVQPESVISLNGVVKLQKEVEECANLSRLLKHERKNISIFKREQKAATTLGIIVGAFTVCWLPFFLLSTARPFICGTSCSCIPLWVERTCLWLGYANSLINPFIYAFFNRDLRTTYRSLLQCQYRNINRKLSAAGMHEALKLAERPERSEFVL
Assay: r5-HT7 binding assay, competitive radioligand binding with [3H]5-CT
Conditions: rat 5-HT7 receptor, HEK-293 membranes
Parameter: Ki. Scope: all listed entries.
Record the value in nM, omitting the unit from your answer.

- CN1CCC(Oc2cc(Br)ccc2OCc2cccc(OS(C)(=O)=O)c2)C1 (racemic): 5
- Brc1ccc(OCC2CCCCC2)c(OC2CNC2)c1: 11

Okay, now this molecule:
Quick one: Ki for CN1CCC(Oc2cc(Br)ccc2OCc2cccc(Cl)c2)C1 (racemic) ?
9

* * *

Parameter: pKi. Scope: all listed entries.
Target: rat 5-HT7 receptor (Rattus norvegicus (Rat))
Experiment: r5-HT7 binding assay, competitive radioligand binding with [3H]5-CT
Settings: rat 5-HT7 receptor, HEK-293 membranes
Structures can show the parent of a compound that is named as a salt.
// pKi: -log10(molar conc.)

Use the examples below as a reference point.
* ON=C1c2ccccc2CC1Oc1ccc(Cl)cc1OC1CNC1 (centres unmarked) | 6.44
* Cc1ccc2c(c1)CCC2Oc1ccc(Br)cc1OC1CNC1 (racemic) | 7.72
* N#Cc1cccc(COc2ccc(Br)cc2OC2CNC2)c1 | 7.96
* CN1CCC(Oc2cc(Br)ccc2OCc2cccc(Cl)c2)CC1 | 8.00
* Clc1ccc(OCC2Cc3ccccc3O2)c(OC2CNC2)c1 (centres unmarked) | 6.92
* Clc1ccc(OCc2csc(-c3cccs3)n2)c(OC2CNC2)c1 | 7.31
* Clc1ccc(OCc2ccc(Cl)c(Cl)c2)c(OC2CNC2)c1 | 8.00

Okay, now this compound:
Quick one: pKi for CC(Oc1ccc(Cl)cc1OC1CNC1)c1cc(F)ccc1F (racemic) [Example 130, trifluoroacetate] ?
6.43
